Recorded cell count, one value per entry.
# testName: inhibitors of TNFa-induced NFkB p65 translocation, primary screen, imaging, HUVEC, MLSMR starter and 10KST1 sets (AID 438);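 further: compound added about 3h40 before a 20 min TNFalpha stimulation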
# conditions: HUVEC TNFa-induced p65 nuclear translocation; measured here: nuclei count (cytotoxicity indicator), at 2.08 µM
Answer with a bare number; do not write a unit.

Below, each entry is followed by its recorded cell count result.
querySmiles | cell count
Cc1ccc(OCC(=O)N2CCN(C(=O)CCC3CCCC3)CC2)cc1 | 319
COC(=O)Cc1c(C)nc2nc(-c3ccccc3)[nH]n2c1=O | 615
O=C(NCc1ccc(Cl)cc1)c1ccc(COCC(F)(F)F)o1 | 702
Cc1ccc(C)c(N2CCN(C(=O)C3CCN(S(=O)(=O)c4c(C)noc4C)CC3)CC2)c1 | 448
CCn1c(=O)cc(SCC(=O)N2CCOCC2)c2ccccc21 | 460

Here is the next item to consider.
What does the data say about its cell count? Entry: "O=C(CCn1c(=O)sc2ccccc21)NC1=NCCS1"
620

====

# experimentalTarget: Voltage-gated potassium channel subunit beta-2 (Rattus norvegicus) (UniProt P62483)
# Sequence (P62483 whole entry, looked up): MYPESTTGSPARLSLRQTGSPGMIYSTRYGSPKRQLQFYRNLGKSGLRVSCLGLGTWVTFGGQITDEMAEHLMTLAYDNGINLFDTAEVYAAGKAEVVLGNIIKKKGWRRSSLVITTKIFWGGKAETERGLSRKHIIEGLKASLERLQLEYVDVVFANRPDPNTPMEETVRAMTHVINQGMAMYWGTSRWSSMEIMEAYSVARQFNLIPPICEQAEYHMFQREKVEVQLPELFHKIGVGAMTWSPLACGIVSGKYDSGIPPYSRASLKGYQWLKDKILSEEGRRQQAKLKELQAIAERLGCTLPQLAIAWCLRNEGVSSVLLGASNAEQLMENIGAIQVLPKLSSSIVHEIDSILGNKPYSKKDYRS
# testName: enhancers of rat Kvbeta2 NADPH turnover – biochemical, NADPH fluorescence, primary screen (AID 623);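 further: fluorescence intensity change per second fitted from 20 to 320 s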
# conditions: Recombinant KvBeta, NADPH fluorescence decrease slope, 10 min; at 10 µM; stronger effect = lower value
measuredQuantity: NADPH fluorescence slope
Please respond with just the number, no unit label.

Name the recorded NADPH fluorescence slope for "Cc1ccccc1CNS(=O)(=O)c1ccc2c(c1)OCCO2" .
-1.9e-05

Also, "CCNC(=O)COc1ccc(Br)cc1Cl" please.
2.4e-05

For "CCn1cc(/C=N/O)c(C)n1" then?
-3.9e-05

Repeat for the following molecule: CC1C(c2ccccc2)N(C)CCC12NC(=O)NC2=O (configuration not stated)
6.4e-05

Cool, now COC(=O)C1=C(C)Nc2nnnn2C1c1ccc(Cl)cc1Cl (configuration not stated)
-4.5e-05

Would you mind doing "COC(=O)c1ccccc1NC(=O)Nc1cccs1" as well?
-9.4e-05

Same for "Cc1ccc(-c2nnc3ccc(SCC(=O)NCc4ccco4)nn23)cc1"
-7.9e-06

Param item: "O=C(c1ccc(NS(=O)(=O)c2cccs2)cc1)N1CCCCC1"
-3.6e-05

// same read-out, input: Cc1ccc(NC(=O)C2CCCNC2=O)nc1 (configuration not stated)
-4.9e-05

====

# testName: loss of swimming-algae plug formation – whole organism, Chlamydomonas reinhardtii, WT vs cilia-less mutant, absorbance, 96-well, primary screen (AID 463189);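 further: 0% = wild type cc124 cells in DMSO and 100% = ciliumless bld1 mutant cells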
# conditions: Chlamydomonas reinhardtii gravitaxis, OD600 absorbance, 2 days; at 10 µM
Activity calls are given as the source filed them.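 How the source made its calls: active means inhibition at or above 50% relative to wild type and mutant plate controls; inactive means inhibition below 50%.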
Outcome field: choose from Y for active, N for inactive

Use the examples below as a reference point.
compound | categoryLabel
CNc1cc(NS(=O)(=O)c2ccc(N)cc2)nc(NC)n1 | N
CN(C)C(=O)/N=N/C(=O)N(C)C | N

Status in this test for "CC(C)C[C@H](NC(=O)[C@@H](O)[C@H](N)Cc1ccccc1)C(=O)O" ?
N

Here is the next compound: "COc1ccc2[nH]cc(CCNC(C)=O)c2c1"
N

Next compound up: O=C(O)C1CCCNC1 (stereo not drawn)
N

Let us now turn to "CCCN1C[C@H](CSC)C[C@@H]2c3cccc4[nH]cc(c34)C[C@H]21"
N

Another: CCC1(O)CC2CN(CCc3c([nH]c4ccccc34)[C@@](C(=O)OC)(c3cc4c(cc3OC)N(C=O)C3[C@]45CCN4CC=C[C@@](CC)([C@@H](OC(C)=O)[C@]3(O)C(=O)OC)[C@H]45)C2)C1 (stereo partly drawn)
N

====

# testName: endothelial E-selectin expression blockers – imaging, HUVEC, immunofluorescence, MLSMR starter and 10KST1 sets, primary screen (AID 487);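 further: signal is fraction of cell area covered by stained E-selectin grains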
# conditions: HUVEC TNFalpha-induced E-selectin immunofluorescence imaging, at 2 µM; stronger effect = higher value
Mark false for inhibition values under -30%, and true for everything at or above.

compound | categoryLabel
CC(=O)O[C@]1(C(C)=O)CC[C@H]2[C@@H]3C=C(Cl)C4=CC(=O)CC[C@]4(C)[C@H]3CC[C@@]21C | false

Please check the record "Cc1ccc(OCC(=O)NCCN2CCCC2)cc1" and state if its inhibition is at or above -30%.
false

What do you get for N#CC(C(=O)C1CCCCC1)c1nc2ccccc2[nH]1 (stereo not given) ?
false

Another compound to check: "CS(=O)(=O)N(CC(=O)N1CCN(c2cccc(Cl)c2)CC1)C1CCCCC1"
true

Now try "Cc1cc(-c2ccccc2)c2c3c(cn2n1)c(=O)n(C)c(=O)n3C" .
true

====

# testName: TLR3 IRF3 reporter activation blockers – cell-based, poly I:C stimulus, luciferase, 10K MLSCN set, primary screen (AID 602277)
# conditions: HEK293-TLR3 RL24 IRF3 luciferase reporter, at 10 µM
Calls of active or inactive are those of the source.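 How the source made its calls: active means inhibition of the reporter signal at or above 50%; inactive means inhibition below 50%.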
Choose the fitting class; nothing outside active, inactive is accepted.

compound | categoryLabel
CCN(CC)C(=O)c1ccc(NS(=O)(=O)c2ccccc2)cc1 | inactive

Identify the outcome logged in this assay for the compound shown: "COC(=O)c1cc(OC)c(OC)cc1NC(=O)CC1CCCCC1"
inactive

====

# experimentalTarget: Voltage-gated potassium channel subunit beta-2 (Rattus norvegicus) (UniProt P62483)
# testName: enhancers of rat Kvbeta2 NADPH turnover – biochemical, NADPH fluorescence, primary screen (AID 623);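 further: fluorescence intensity change per second fitted from 20 to 320 s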
# conditions: Recombinant KvBeta, NADPH fluorescence decrease slope, 10 min; at 10 µM; stronger effect = lower value
measuredQuantity: NADPH fluorescence slope
The answer should be a number; do not append a unit.

// solved cases for NADPH fluorescence slope follow
molecule | NADPH fluorescence slope
FC(F)(F)c1cc(-c2ccco2)nc(-n2nnc3ccccc32)n1 | 1.3e-05
O=C(c1noc2c1CCc1ccccc1-2)N1CCOCC1 | 2.9e-06
COc1cc(C(=O)NCC(=O)n2nc(C)cc2C)cc(OC)c1OC | 7.5e-06
CCn1c(Cc2ccc(OC)cc2)nnc1SCC(=O)Nc1cccc(C(=O)OC)c1 | -1.6e-05
COc1ccc(CN2C(=O)C(O)(CC(=O)c3c(C)n[nH]c3C)c3ccccc32)cc1OC (stereo not given) | -4.5e-05

Report NADPH fluorescence slope for COC(=O)CN1C(=O)C2(C(C#N)=C(N)Oc3c2c(C)nn3-c2ccccc2)c2ccccc21 (stereo not given) please.
-6.6e-05

Consider next the molecule O=C1C2CCCN2C(c2ccc(Cl)cc2)N1c1nccs1 (stereo not given) in the same way.
-6e-05

====

# testName: endothelial E-selectin expression blockers – imaging, HUVEC, immunofluorescence, MLSMR starter and 10KST1 sets, primary screen (AID 487);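 further: signal is fraction of cell area covered by stained E-selectin grains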
# conditions: HUVEC TNFalpha-induced E-selectin immunofluorescence imaging, at 2 µM; stronger effect = higher value
measuredQuantity: inhibition (%)
Express your answer in %, writing the number without its unit.

Here are 5 compounds together with their reported answers.
querySmiles | recordedResult
CCc1cccc(NS(=O)(=O)c2c(C)n[nH]c2C)c1 | -135
O=C(COc1ccc2c(c1)OCO2)NC12CC3CC(CC(C3)C1)C2 | -142
COCCSc1ccccc1C(=O)Nc1cc(C)on1 | 22.8
Nc1ncnc2nc(SCCN3CCCCC3)[nH]c12 | -0.1
COC(=O)c1cc(Br)ccc1-c1ccc(/C=N/n2nnnc2N)o1 | -56

Below: the item to evaluate.
What measured inhibition goes with "COC(=O)c1c(NC(=O)c2ccc(S(=O)(=O)N3CCOCC3)cc2)sc2c1CCN(C)C2" ?
-25.5

====

Entries annotated with measured inhibition
# testName: loss of swimming-algae plug formation – whole organism, Chlamydomonas reinhardtii, WT vs cilia-less mutant, absorbance, 96-well, primary screen (AID 463189);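 further: 0% = wild type cc124 cells in DMSO and 100% = ciliumless bld1 mutant cells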
# conditions: Chlamydomonas reinhardtii gravitaxis, OD600 absorbance, 2 days; at 10 µM; stronger effect = higher value
Your answer is read as %, so omit the unit and give the number.

Sample records with inhibition:
compound | quantityUnit | inhibition
NC(N)=N[C@@H](CCC(=O)O)C(=O)O | % | 2.13
O=C(O)c1ccccc1Nc1cccc(OCc2ccc3ccccc3n2)c1 | % | 8.8
CC(C)CN(C)c1nc(N)c(C(=O)N=C(N)N)nc1Cl | % | -3.31
Cc1ccc(C(=O)O[C@H](C(=O)O)[C@H](OC(=O)c2ccc(C)cc2)C(=O)O)cc1 (tested in a mixture with another compound) | % | 5.96
NCCCCCCCCCCN | % | 2.72
NCCCCNS(=O)(=O)c1cccc2c(Cl)cccc12 | % | -1.51

Given "CCC(=O)Oc1oc(-c2ccccc2)nc1C=Nc1ccccc1OC" , state its recorded inhibition.
10.5

Note, next up: CC(C)C[C@H]1C(=O)N2CCC[C@H]2[C@]2(O)O[C@](NC(=O)[C@@H]3C=C4c5cccc6[nH]c(Br)c(c56)CC4N(C)C3)(C(C)C)C(=O)N12 (stereo not given in full)
-11.5

Moving on to the next compound: OC(CN1CCN(c2cccc(Cl)c2)CC1)C(c1ccccc1)c1ccccc1 (stereo not given)
4.93

Please answer likewise for "Oc1ccccc1O"
-5

Hello, the source for this data is PubChem BioAssay, in case you need it.
